Values were extracted from patent US8258099B2.

Biological target: full-length hPin1 (human, UniProt Q13526 1-163)
Sequence (Q13526 whole entry): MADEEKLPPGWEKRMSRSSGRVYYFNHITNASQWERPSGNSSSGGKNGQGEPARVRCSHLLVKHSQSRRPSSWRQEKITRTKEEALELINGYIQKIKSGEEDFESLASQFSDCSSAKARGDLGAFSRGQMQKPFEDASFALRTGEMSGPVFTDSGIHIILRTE
Experiment: cell-based or functional assay
Square brackets hold non-standard residues; d marks the D form. * marks the point of attachment. Biotin = O=C1N[C@H]2[C@H](CS[C@H]2CCCCC(=O)*)N1; Phe(4-tBu) = CC(C)(C)c1ccc(C[C@H](N)C(=O)O)cc1; Bip = N[C@@H](Cc1ccc(-c2ccccc2)cc1)C(=O)O; pT = C[C@@H](OP(=O)(O)O)[C@H](N)C(=O)O; 2Nal = N[C@@H](Cc1ccc2ccccc2c1)C(=O)O; Bta = N[C@@H](Cc1csc2ccccc12)C(=O)O; Tic = O=C(O)[C@@H]1Cc2ccccc2CN1; 2Thi = N[C@@H](Cc1cccs1)C(=O)O; Cha = N[C@@H](CC1CCCCC1)C(=O)O; NMeA = CN[C@@H](C)C(=O)O
Threshold 20 µM: IC50(µM), blockade of the PPIase activity of hPin1, protease free PPIase assay strictly smaller gives condition met, otherwise condition not met.

1) Ac-K(Biotin)AA[Cha][pT][Tic][2Nal]Q-NH2 (SMILES CC(=O)N[C@@H](CCCCNC(=O)CCCC[C@@H]1SC[C@@H]2NC(=O)N[C@@H]21)C(=O)N[C@@H](C)C(=O)N[C@@H](C)C(=O)N[C@@H](CC1CCCCC1)C(=O)N[C@H](C(=O)N1Cc2ccccc2C[C@H]1C(=O)N[C@@H](Cc1ccc2ccccc2c1)C(=O)N[C@@H](CCC(N)=O)C(N)=O)[C@@H](C)OP(=O)(O)O) [peptide 14] : condition not met
2) Ac-K(Biotin)AA[2Thi][pT]P[Bip]Q-NH2 [peptide 2] : condition not met
3) Ac-K(Biotin)AA[Phe(4-tBu)][pT][Tic][Bta]Q-NH2 (SMILES CC(=O)N[C@@H](CCCCNC(=O)CCCC[C@@H]1SC[C@@H]2NC(=O)N[C@@H]21)C(=O)N[C@@H](C)C(=O)N[C@@H](C)C(=O)N[C@@H](Cc1ccc(C(C)(C)C)cc1)C(=O)N[C@H](C(=O)N1Cc2ccccc2C[C@H]1C(=O)N[C@@H](Cc1csc2ccccc12)C(=O)N[C@@H](CCC(N)=O)C(N)=O)[C@@H](C)OP(=O)(O)O) [peptide 13] : condition met
4) Ac-K(Biotin)AA[2Nal][pT]P[Cha]Q-NH2 [peptide 8] : condition not met
5) Ac-K(Biotin)AA[Bta][pT]P[Cha]Q-NH2 [peptide 3] : condition not met
6) Ac-K(Biotin)AA[Cha][pT][NMeA][2Nal]Q-NH2 [peptide 11] : condition met
7) Ac-K(Biotin)AA[Bip][pT]P[Bta]Q-NH2 [peptide 5] : condition met
